src = patent US20190064177A1

- System: diaphorase
- test.details: fluorescently labeled diaphorase binding to peptide array with or without excess FAD
- assay.conditions: 10 micromolar labeled diaphorase, excess FAD present; 65535 is detector saturation
measured.attribute: 10 microM FAD (array fluorescence of bound diaphorase)
Numbers only.

Sample answers from the record:
[[record]]
residue_codes = "NVSDLSQFYLSGSG [array peptide with C-terminal GSG linker]"
recorded_measurement = 27800.25

[[record]]
residue_codes = "YSVDYWYQVDGSG [array peptide with C-terminal GSG linker]"
recorded_measurement = 19218.25

[[record]]
residue_codes = "RYAYFQHLGGSG [array peptide with C-terminal GSG linker]"
recorded_measurement = 64053.5

[[record]]
residue_codes = "LAKQNRVEDGSS (LAKQNRVEDGSG) [array peptide with C-terminal GSG linker]"
recorded_measurement = 3699


Please go through the list and note 10 microM FAD (array fluorescence of bound diaphorase) for each sequence.
1. RLQYLFKSDGSG [array peptide with C-terminal GSG linker]
2. RYNLYKPSDGSG [array peptide with C-terminal GSG linker]
3. KNRPYNKDLEDGSG [array peptide with C-terminal GSG linker]

Output:
30591
18165
2589.25

Please go through the list and note 10 microM FAD (array fluorescence of bound diaphorase) for each sequence.
1. RYYPAFSGGSG [array peptide with C-terminal GSG linker]
2. RWSFPAKGGSG [array peptide with C-terminal GSG linker]
3. WLDLGVFPYQHLGSG [array peptide with C-terminal GSG linker]
4. SVLEGYQAVFGGSG [array peptide with C-terminal GSG linker]
5. RSHPKHNVGSG [array peptide with C-terminal GSG linker]
6. AQVAVDGFYVDGSG [array peptide with C-terminal GSG linker]
7. YRPYGPVYNGGSG [array peptide with C-terminal GSG linker]
8. LLGFLGGSG [array peptide with C-terminal GSG linker]

Output:
1. 65535
2. 51221.25
3. 33610.5
4. 21517.25
5. 12238.917
6. 22739.5
7. 65535
8. 40264.25

Please go through the list and note 10 microM FAD (array fluorescence of bound diaphorase) for each sequence.
1. FGKLYQLYNDGSG [array peptide with C-terminal GSG linker]
2. DLDKAFGGSG [array peptide with C-terminal GSG linker]

Output:
1: 34155; 2: 2142.25

* * *

- System: diaphorase
- test.details: fluorescently labeled diaphorase binding to peptide array with or without excess FAD
- assay.conditions: 10 micromolar labeled diaphorase, no FAD; 65535 is detector saturation
Kindly supply the reported 10 microM no FAD (array fluorescence of bound diaphorase) values for the records listed here.

[[record]]
residue_codes = "KEAPGPRFGGSG [array peptide with C-terminal GSG linker]"
recorded_measurement = 5614.5


Please go through the list and note 10 microM no FAD (array fluorescence of bound diaphorase) for each sequence.
1. DLDKAFGGSG [array peptide with C-terminal GSG linker]
2. EGYANKLLALFSGSG [array peptide with C-terminal GSG linker]
3. KNRPYNKDLEDGSG [array peptide with C-terminal GSG linker]

Output:
1853
6648
2522.5

Please go through the list and note 10 microM no FAD (array fluorescence of bound diaphorase) for each sequence.
1. VFGVLSQVARDGSG [array peptide with C-terminal GSG linker]
2. YRPYGPVYNGGSG [array peptide with C-terminal GSG linker]
3. DLFQLVFSGSG [array peptide with C-terminal GSG linker]
4. YRFAQYKGQKDGSG [array peptide with C-terminal GSG linker]
5. VERASYNLDGSG [array peptide with C-terminal GSG linker]

Output:
1. 26186.5
2. 65535
3. 32672.5
4. 56915
5. 2900.5
